# Target: McpA-LBD (A36-L277) (Bacillus velezensis)
# Sequence (A7Z835 36-277): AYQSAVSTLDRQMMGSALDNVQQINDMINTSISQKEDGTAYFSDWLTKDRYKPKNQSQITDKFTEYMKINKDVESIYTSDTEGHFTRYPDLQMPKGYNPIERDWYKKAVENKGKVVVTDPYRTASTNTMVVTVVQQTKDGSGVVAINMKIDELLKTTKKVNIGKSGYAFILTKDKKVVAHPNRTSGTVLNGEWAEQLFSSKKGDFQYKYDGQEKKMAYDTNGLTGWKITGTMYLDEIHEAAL
# Protocol Description: Biolayer interferometry
# Type: binding, Bacillus velezensis SQR9
Readout Name: Kd (µM)

| Record Smiles | Target | Readout Units | Experimental Value |
| --- | --- | --- | --- |
| OC[C@@H](O)[C@@H](O)[C@@H](O)CO | McpA-LBD (A36-L277) (Bacillus velezensis) | µM | 4.36 |
